biological target: EphA2 ligand-binding domain fused to human Fc (EphA2 Fc) (UniProt P29317 24-537); experiment: ELISA
Sequence (P29317 24-537): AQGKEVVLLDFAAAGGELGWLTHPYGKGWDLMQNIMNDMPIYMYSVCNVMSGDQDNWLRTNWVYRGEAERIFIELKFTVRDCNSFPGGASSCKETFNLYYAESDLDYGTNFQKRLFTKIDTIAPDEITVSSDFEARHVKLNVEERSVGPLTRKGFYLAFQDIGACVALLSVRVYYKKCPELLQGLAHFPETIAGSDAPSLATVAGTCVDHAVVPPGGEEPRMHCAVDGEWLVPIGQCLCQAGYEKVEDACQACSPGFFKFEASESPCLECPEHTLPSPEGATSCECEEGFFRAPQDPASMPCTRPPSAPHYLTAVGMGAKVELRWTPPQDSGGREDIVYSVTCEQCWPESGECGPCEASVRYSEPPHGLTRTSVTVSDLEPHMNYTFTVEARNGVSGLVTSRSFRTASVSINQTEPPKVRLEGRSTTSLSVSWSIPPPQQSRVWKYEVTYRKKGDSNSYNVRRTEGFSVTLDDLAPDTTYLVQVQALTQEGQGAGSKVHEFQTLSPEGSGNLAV
reportedMetric: IC50

Input line: Look up IC50 for this binder: YSAAPDSVPMMS (C-terminal amide if made in house) [Ala-4 peptide (YSA-12mer with alanine at position 4)]
Output line: > 100 µM

src = paper PMC2932750
